tested on: genotype 1a replicon (1a-H77); assay: 1a stable replicon (luciferase reporter); format: cell-based, HCV; conditions: Hepatitis C virus, Huh-7, luciferase reporter, HuH-7 cells, 5% FBS
pEC50: −log10 of the molar value.
QUANTITY KIND: pEC50

Before answering, review these 4 worked examples.
• COc1ccc2c(c1)nc(O[C@@H]1C[C@H]3C(=O)N[C@]4(C(=O)NS(=O)(=O)C5(C)CC5)C[C@H]4/C=C\CCCCC[C@H](NC(=O)c4cc(C)on4)C(=O)N3C1)c1ccccc12 = 9.30 to 10.00
• Cc1cc(C(=O)N[C@H]2CCCCC/C=C\[C@@H]3C[C@@]3(C(=O)NS(=O)(=O)C3(C)CC3)NC(=O)[C@@H]3C[C@@H](Oc4nc5ccccc5c5ccc(F)cc45)CN3C2=O)no1 = 9.00 to 9.30
• CC1(S(=O)(=O)NC(=O)[C@@]23C[C@H]2/C=C\CCCCC[C@H](NC(=O)c2ccn(C(F)F)n2)C(=O)N2C[C@H](Oc4nc5cc(F)ccc5c5ccccc45)C[C@H]2C(=O)N3)CC1 = 9.00 to 9.30
• CC1(S(=O)(=O)NC(=O)[C@@]23C[C@H]2/C=C\CCCCC[C@H](NC(=O)[C@@H](O)C(F)(F)F)C(=O)N2C[C@H](Oc4nc5cc(F)ccc5c5ccccc45)C[C@H]2C(=O)N3)CC1 = 9.00 to 9.30

Please examine the following record next.
Task: What value of pEC50 has been reported for the following compound? "COc1ccc2c(c1)nc(O[C@@H]1C[C@H]3C(=O)N[C@]4(C(=O)NS(=O)(=O)C5CC5)C[C@H]4/C=C\CCCCC[C@H](NC(=O)c4ccn(C)n4)C(=O)N3C1)c1ccc(F)cc12"
Output: 9.30 to 10.00

Where do the numbers come from? From patent US8951964B2.
